assay: Stability of linkers L1-L4 conjugated to FGF21 (LC-MS); type: physicochemical; details: linker conjugated to FGF21ΔH-A129C, +4° C.; 0 hrs
Overview of reported 1 linker (protein+linker conjugation) across a group of compounds:
Measure: 1 linker (protein+linker conjugation) (%)

1. CC1=CC(=O)N(CC2CCC(C(=O)NCCOCCOCCC(=O)Nc3ccc(CCC(=O)N4CCC4=O)cc3)CC2)C1=O (stereo not shown)	46
2. O=C(CCN1C(=O)C=CC1=O)NCCOCCOCCC(=O)Nc1ccc(CCC(=O)N2CCC2=O)cc1	49
3. CC1=CC(=O)N(CCOCCOCCC(=O)Nc2ccc(CCC(=O)N3CCC3=O)cc2)C1=O	45
4. CC1=CC(=O)N(CCC(=O)NCCOCCOCCC(=O)Nc2ccc(CCC(=O)N3CCC3=O)cc2)C1=O	45

----------
assay: Stability of linkers L1-L4 conjugated to FGF21 (LC-MS); assay type: physicochemical; settings: linker conjugated to FGF21ΔH-A129C, +4° C.; 72 hrs
Measure: +(1) H2O (single hydrolysis) (%)

1. CC1=CC(=O)N(CCC(=O)NCCOCCOCCC(=O)Nc2ccc(CCC(=O)N3CCC3=O)cc2)C1=O [Compound L2]	32
2. CC1=CC(=O)N(CC2CCC(C(=O)NCCOCCOCCC(=O)Nc3ccc(CCC(=O)N4CCC4=O)cc3)CC2)C1=O (stereo not shown) [Compound L4]	30
3. CC1=CC(=O)N(CCOCCOCCC(=O)Nc2ccc(CCC(=O)N3CCC3=O)cc2)C1=O [Compound L3]	30
4. O=C(CCN1C(=O)C=CC1=O)NCCOCCOCCC(=O)Nc1ccc(CCC(=O)N2CCC2=O)cc1 [Compound L1]	35
